Catalogue of binders with associated ELISA signal
Biological target: T1, human HVEM (human, UniProt Q92956 39-202, limits assumed); also: test concentration or dose not given here
T1 sequence (looked up): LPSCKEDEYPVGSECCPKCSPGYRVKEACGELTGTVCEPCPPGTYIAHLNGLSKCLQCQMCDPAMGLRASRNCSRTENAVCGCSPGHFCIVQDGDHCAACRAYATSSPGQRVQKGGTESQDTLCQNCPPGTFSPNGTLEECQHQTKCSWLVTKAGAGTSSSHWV
Assay: ELISA

The cases that follow already have their ELISA signal on record.
binder | result
Ab_074 (H5S20-52A21A) (antibody, V domains shown, also called Ab_74) VH: EVQLQQSGAELVKPGASVKLSCTASGFNIKDTYIHWLNQRPEQGLEWIGRIDPANGKTKFAPKFQDKATITADTSSNTAYLQLSSLTSEDTAVYYCAGYGNSPWFAYWGQGTLVTVSA VL: DVLMTQTPLSLPVSLGDQASISCRSSQSIVHSNGNTYLEWYLQKPGQSPKLLIYKVSNRVSGVPDRFSGSGSGTDFTLKISRVEAEDLGVYYCFQGSHVPLTFGAGTKLELK | 3.26
Ab_075 (H5S20-12A10A) (antibody, V domains shown, also called Ab_75) VH: QIQLVQSGPELKKPGETVKISCKASGYTFTNFGMNWVRQAPGKGLKWMGWINTYTGEPTYADDFKGRFAFSLETSASTAYLQINNLKNDDMATYFCARSLYGNRDYWGQGTTLTVSS VL: QIVLTQSPAIMSASLGEEITLTCSASSSVSYMHWYQQRSGTSPKLLIYSTSNLASGVPSRFSGSGSGTFYSLTISSVEAEDAADYYCHQWSSYRTFGGGTKLEIK | 3.04

// switching to the query binder
Record Ab_023 (H5S14-27A23A) (antibody, V domains shown, also called Ab_23) VH: EVKLDETGGGLVQPGRPMKLSCVASGFTFSDYWMNWVRQSPEKGLEWVAQIRNKPYNYETYYSDSVKGRFTISRDDSKSSVYLQMNNLRAEDMGIYYCTWGNYWGQGTTLTVSS VL: DIKMTQSPSSMYASLGERVTITCKASQDINSYLSWFQQKPGKSPKTLIYRANRLVDGVPSRFSGSGSGQDYSLTISSLEYEDMGIYYCLQYDEFPWTFGGGTKLEIK . Reported ELISA signal: 0.045

Data provenance is patent US20240317871A1.
